System: Glucocorticoid Receptor
ASSAY: Receptor bond: relative molar binding affinity to the glucocorticoid receptor
CONDITION: Dexamethasone = 100%
Give Relative Molar Binding-affinity RBA (%) to the Glucocorticoid Receptor for every item shown.
Supply the numeric figure in %, leaving out any unit text.

Reported Relative Molar Binding-affinity RBA (%) to the Glucocorticoid Receptor of CC12CC(c3ccc(C=NO)cc3)C3=C4CCC(=O)C=C4CCC3C1CCC2(O)C(F)(F)C(F)(F)F (stereo not drawn) : 10

Reported Relative Molar Binding-affinity RBA (%) to the Glucocorticoid Receptor of CN(C)c1ccc([C@H]2C[C@]3(C)[C@@H](CC[C@]3(O)CCCO)[C@@H]3CCC4=CC(=O)CCC4=C32)cc1 [Onapristone, reference compound] : 39

For CCNC(=O)ON=Cc1ccc(C2CC3(C)C(CCC3(O)C(F)(F)C(F)(F)F)C3CCC4=CC(=O)CCC4=C23)cc1 (stereo not drawn) the compound record lists Relative Molar Binding-affinity RBA (%) to the Glucocorticoid Receptor as 84
